Listed next: entries and their corresponding pEC50.
# System: IL-6
# measurementDescription: Inhibition of IL-6 in LPS-stimulated THP-1 human monocyte cells (HTRF)
# Format: cell-based
# condition: IL-6 inhibition, LPS-stimulated THP-1 cells, HTRF
pEC50: −log10 of the molar value.
testReadout: pEC50

1. c1ccc(-c2cccc3[nH]c(-c4n[nH]c5ccc(-c6cncc(CN7CCCC7)c6)cc45)cc23)nc1 6.12
2. c1ccc2[nH]c(-c3n[nH]c4ccc(-c5cncc(OCCN6CCCC6)c5)cc34)cc2c1 6.68
3. CN1CCN(c2cccc3[nH]c(-c4n[nH]c5ccc(-c6cncc(N)c6)cc45)cc23)CC1 5.74
4. CN1CCN(c2cccc3[nH]c(-c4n[nH]c5ccc(-c6cncnc6)cc45)cc23)CC1 6.82
5. Nc1cncc(-c2ccc3[nH]nc(-c4cc5c(-c6ccccc6F)cccc5[nH]4)c3c2)c1 5.46
6. Nc1cncc(-c2ccc3[nH]nc(-c4cc5c(-c6ccccn6)cccc5[nH]4)c3c2)c1 6.54
7. CN(C)Cc1cncc(-c2ccc3[nH]nc(-c4cc5c(-c6cccc(F)c6)cccc5[nH]4)c3c2)c1 7.44
8. CS(=O)(=O)NCc1cc(F)cc(-c2cccc3[nH]c(-c4n[nH]c5ccc(-c6cncc(CN7CCC(F)(F)C7)c6)cc45)cc23)c1 5.50
9. CCNCc1cncc(-c2ccc3[nH]nc(-c4cc5c(-c6ccncc6)cccc5[nH]4)c3c2)c1 6.86
10. CN1CCN(c2cccc3[nH]c(-c4n[nH]c5ccc(-c6cncc(CN7CCCCC7)c6)cc45)cc23)CC1 5.94
11. Fc1ccccc1-c1cccc2[nH]c(-c3n[nH]c4ccc(-c5ccccn5)cc34)cc12 5.62
12. O=C(Nc1cncc(-c2ccc3[nH]nc(-c4cc5c(-c6ccncc6)cccc5[nH]4)c3c2)c1)C1CC1 6.96
